Experiment: Quantitative High-Throughput drug screen in 47 multiple myeloma cell lines against the NCATS MIPE library collection: KMS12BM_JCRB cell viability assay (AID 1918971); further: nearly all actives have a fitted effect of over 35% in size
Conditions: KMS12BM myeloma viability, CellTiter-Glo ATP, 48 h; series mostly up to 45.8 µM
Records with an inconclusive call do not appear. Active and inactive are the calls of the source. The call rests on the fitted dose curve; in most records, active means well fitted cell-killing curve with a large enough effect; inconclusive means small, poorly fitted or top-dose-only effect, or effect the other way; inactive means no such curve, though single readings can be large or run the other way.
Answer with one of the outcomes given here: TRUE = active, FALSE = inactive

Example cases with answers are listed next.
Molecule	Assigned Class
CN(C)N=Nc1nc[nH]c1C(N)=O	FALSE
CN(C)S(=O)(=O)c1ccc2c(c1)C(=Cc1cc3c([nH]1)CCCC3)C(=O)N2	TRUE
C[C@@H]1[C@H](C)CC[C@]2(C(=O)O)CC[C@]3(C)C(=CC[C@@H]4[C@@]5(C)CC[C@H](O)C(C)(C)[C@H]5CC[C@]43C)[C@@H]12	TRUE
CO[C@@H]1C(N(C)C(=O)c2ccccc2)C[C@H]2O[C@]1(C)n1c3ccccc3c3c4c(c5c6ccccc6n2c5c31)C(=O)NC4=O (some centres undefined)	FALSE
CN1N=C(N)c2cn([C@@H]3O[C@H](COP(=O)(O)O)[C@@H](O)[C@@H]3O)c3ncnc1c23	TRUE

State the result this test recorded for `C[C@@H](O)[C@H]1C(=O)N2C(C(=O)OCOC(=O)C(C)(C)C)=C(SC3CN(C4=NCCS4)C3)[C@H](C)[C@H]12` .
FALSE

Okay, and `O=c1[nH]c(=O)n([C@H]2C[C@@H](O)[C@@H](CO)O2)cc1I` ?
FALSE

Okay, and `O=c1[nH]nc(OCCCc2ccc(Cl)cc2)c(NCc2cccnc2)c1Br` ?
TRUE

Okay, and COc1ccc(-c2nc3ccc(C4=NNC(=O)CC4C)cc3[nH]2)cc1 (centres undefined) ?
FALSE

====

Assay: Quantitative High-Throughput drug screen in 47 multiple myeloma cell lines against the NCATS MIPE library collection: Delta47_JCRB cell viability assay (AID 1918925; further: nearly all actives have a fitted effect of over 45% in size)
Conditions: Delta47 myeloma viability, CellTiter-Glo ATP, 48 h; series mostly up to 45.8 µM
Inconclusive results are not listed. Activity calls are given as the source filed them. The call rests on the fitted dose curve; in most records, active means well fitted cell-killing curve with a large enough effect; inconclusive means small, poorly fitted or top-dose-only effect, or effect the other way; inactive means no such curve, though single readings can be large or run the other way.
Answer with one of the outcomes given here: active, inactive

Example cases with answers are listed next.
Compound	Assigned Class
CCc1cc(-c2n[nH]c(C)c2-c2ccc3c(c2)OCCO3)c(O)cc1O	active
CCC(C)SSc1ncc[nH]1 (stereo not drawn)	active
COc1c(C)c2c(c(O)c1CC=C(C)CCC(=O)OCCN1CCOCC1)C(=O)OC2	inactive

State the result this test recorded for `CC(C)Oc1cc(Nc2nc(N[C@@H](C)c3ccc(F)cn3)ncc2Cl)[nH]n1` .
active

Okay, and `CC1(C)[C@H]2CC[C@]3(C)[C@@H](C(=O)C=C4[C@@H]5C[C@@](C)(C(=O)O)CC[C@]5(C)CC[C@]43C)[C@@]2(C)CC[C@@H]1O` ?
inactive

Okay, and CN(C(Cc1ccc(OS(=O)(=O)c2cccc3cnccc23)cc1)C(=O)N1CCN(c2ccccc2)CC1)S(=O)(=O)c1cccc2cnccc12 (stereo not drawn) ?
active

====

Assay: Primary qHTS for inhibitors of nuclear receptor binding SET domain protein 2 (NSD2) in an RCH-ACV wild type WT cells (2C) (AID 1645877); further: nearly all actives have a fitted effect of over 70% in size
Conditions: RCH-ACV (leukaemia line) NSD2 WT (2C) viability, CellTiter-Glo, 72 h; series mostly up to 44.9 µM
Results filed as inconclusive are left out. Active and inactive are the calls of the source. The call rests on the fitted dose curve; in most records, active means well fitted inhibition curve with a large enough effect; inconclusive means small, poorly fitted or top-dose-only effect; inactive means no such curve, though single readings can be large or run the other way.
Answer with one of the outcomes given here: T = active, F = inactive

Compound Structure	Assigned Class
CCOC(=O)N1c2ccc(C(F)(F)F)cc2[C@@H](N(Cc2cc(C(F)(F)F)cc(C(F)(F)F)c2)C(=O)OC)C[C@H]1CC	F

Shift focus to the following entry.
State the result this test recorded for `O=C(Nc1cccc(Cl)c1)Nc1ncc(CCNc2ncnc3ccsc23)s1` .
T

====

Experiment: High-throughput drug toxicity screening in the BPDCN cell line Cal-1 (AID 1224825);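 further: cells exposed to compounds for 48 h; 100% = DMSO and 0% = bortezomib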
Conditions: Cal-1 BPDCN cell viability, qHTS; at 45.8 µM (top of the series) unless noted
So I've got a bunch of molecules here, and I need their viability (% of control) values.
Answers are plain numbers, in %.

Completed entries (count: 2):
Compound Structure	Units Of Measure	viability (% of control)
C[C@@H](O)[C@H]1C(=O)N2C(C(=O)OCOC(=O)C(C)(C)C)=C(SC3CN(C4=NCCS4)C3)[C@H](C)[C@H]12	%	39.5
CCc1cc(-c2n[nH]c(C)c2-c2ccc3c(c2)OCCO3)c(O)cc1O	%	9.12

Provide the reported viability (% of control) of each entry below, same order.
1. Clc1ccc(C2(c3ccc(-c4cn[nH]c4)cc3)CCNCC2)cc1
2. Cc1cc(-c2ncc(CC(=O)Nc3ccc(-c4cnccn4)cn3)cc2C)ccn1
3. C[C@@H]1[C@H](O)[C@@H](C)C=CC=CC=CC=CC=CC=CC=C[C@H](O[C@@H]2O[C@H](C)[C@H](O)[C@H](N)[C@@H]2O)C[C@@H]2O[C@](O)(C[C@@H](O)C[C@@H](O)[C@H](O)CC[C@@H](O)C[C@@H](O)CC(=O)O[C@H]1C)C[C@H](O)[C@@H]2C(=O)O
4. CCC(=O)NCC[C@@H]1CCc2ccc3c(c21)CCO3

10.8
97
4.45
117

Provide the reported viability (% of control) of each entry below, same order.
1. COc1c(C)c2c(c(O)c1CC=C(C)CCC(=O)OCCN1CCOCC1)C(=O)OC2
2. CCN1CCN(c2ccc(Nc3cc(N(C)C(=O)Nc4c(Cl)c(OC)cc(OC)c4Cl)ncn3)cc2)CC1

1. 13.5
2. 90.9

====

Experiment: Quantitative High-Throughput drug screen in 47 multiple myeloma cell lines against the NCATS MIPE library collection: KMS20_JCRB cell viability assay (AID 1918973); further: potency means the concentration at half of the fitted maximal effect; nearly all actives have a fitted effect of over 45% in size
Details: CellTiter-Glo ATP, 48 h; series mostly up to 45.8 µM
Records with an inconclusive call do not appear. Activity calls are given as the source filed them. Calls follow the shape of the dose curve; as a rule, active = well fitted cell-killing curve with a large enough effect; inconclusive = small, poorly fitted or top-dose-only effect, or effect the other way; inactive = no such curve, though single readings can be large or run the other way.
Measured Parameter: Potency

Completed entries (count: 5):
Compound Structure	Potency
CCCCCCCCCCCCCC(=O)N[C@H](CO)[C@H](O)c1ccc([N+](=O)[O-])cc1	23.5 µM (active)
C[C@@H](N)c1ccc(C(=O)Nc2ccnc3[nH]ccc23)cc1	18.7 µM (active)
CCc1cccc(CC)c1NC(=O)N1Cc2[nH]nc(NC(=O)c3ccc(N4CCN(C)CC4)cc3)c2C1	14.8 µM (active)
Cc1ccc(NC(=O)Nc2cc(C(F)(F)F)ccc2F)cc1Nc1ccc2c(c1)NC(=O)C2=Cc1ccc[nH]1	5.9 µM (active)
CC[C@H](C)n1cc(C)c2c(C(=O)NCc3c(C)cc(C)[nH]c3=O)cc(-c3ccc(N4CCNCC4)nc3)cc21	18.7 µM (active)

Provide the reported Potency of each entry below, same order.
1. CC(=O)NCCC(=O)N[C@@H](CCC(N)=O)C(=O)N[C@@H](CO)C(=O)N[C@@H](CCC(N)=O)C(=O)N[C@@H](CCC(N)=O)C(=O)N[C@H](C(=O)N[C@@H](Cc1ccccc1)C(=O)N[C@]1(C)CCCCCCC=CCCC[C@@](C)(C(=O)N[C@@H](CCC(N)=O)C(=O)N[C@@H](CC(N)=O)C(N)=O)NC(=O)[C@H](CC(C)C)NC(=O)[C@H](CC(C)C)NC(=O)[C@@H](CCCNC(=N)N)NC(=O)[C@H](Cc2c[nH]c3ccccc23)NC(=O)[C@H](CC(C)C)NC(=O)[C@H](CC(N)=O)NC1=O)[C@H](C)O
2. COc1cc(Nc2nc3ccccc3nc2NS(=O)(=O)c2ccc(NC(=O)c3ccc(C)c(OC)c3)cc2)cc(OC)c1

1. 18.7 µM (active)
2. 23.5 µM (active)

====

Tested on: CAOV3
Experiment: Primary qHTS to identify gynecologic anti-cancer compounds using libraries of approved drugs and bioactive compounds (AID 1345084); further: on the % scale 0 is the no-effect control and ±100 the full control effect; nearly all actives have a fitted effect of over 55% in size
Conditions: Gynecologic cancer cell panel viability, ATPlite luminescence, 48 h; series mostly up to 57.5 µM
Inconclusive results are not listed. Active and inactive are the calls of the source. Calls come from the whole dose curve; as a rule, active = well fitted cell-killing curve with a large enough effect; inconclusive = small, poorly fitted or top-dose-only effect, or effect the other way; inactive = flat fitted curve, though single readings scatter.
Answer with one of the outcomes given here: active, inactive

State the result this test recorded for `COc1nccc(-c2c(-c3ccc(F)cc3)ncn2C2CCNCC2)n1` .
inactive

Okay, and `COc1ccc(CCC(=O)Nc2nc3ccc(Cl)cc3s2)cc1OC` ?
inactive

Okay, and `Cc1ccccc1-n1c(Cn2nc(-c3cccc(O)c3)c3c(N)ncnc32)nc2cccc(C)c2c1=O` ?
inactive

Okay, and `Cc1nc2c([nH]1)CCN(C(=O)c1ccc(NC(=O)c3ccccc3-c3ccccc3)cc1)c1ccccc1-2` ?
inactive

Okay, and `O=C(O)CCNc1cc(N2CCc3ccccc3CC2)nc(-c2ccccn2)n1` ?
inactive

====

So I've got a bunch of compounds here, and I need their max response values.
Test system: KB-3-1
Assay: Cytotoxic Profiling of Annotated Libraries Using Quantitative High-Throughput Screening (AID 1296008); further: on the % scale 0 is the no-effect control and ±100 the full control effect; nearly all actives have a fitted effect of over 60% in size
Conditions: Five cell lines viability, CellTiter-Glo ATP luminescence, 48-72 h; stronger effect = lower value
Inconclusive results are not listed.
Give bare numbers, in %.

Completed entries (count: 2):
Compound Structure	Target Or Test System	Units Of Measure	Result Number
CCOC(=O)c1c(CSc2ccccc2)n(C)c2cc(Br)c(O)c(CN(C)C)c12	KB-3-1	%	-17.1
CCNC(=O)[C@H]1O[C@@H](n2cnc3c(N)nc(NCCc4ccc(CCC(=O)O)cc4)nc32)[C@H](O)[C@H]1O	KB-3-1	%	-0.875

Provide the reported max response of each entry below, same order.
1. COc1cc2ncn(-c3cc(OCc4ccccc4S(C)(=O)=O)c(C#N)s3)c2cc1OC
2. NC[C@H]1O[C@H](O[C@@H]2[C@@H](O)[C@@H](O[C@H]3O[C@H](CO)[C@@H](O)[C@H](N)[C@@H]3O)[C@H](N)C[C@@H]2N)[C@H](O)[C@@H](O)[C@H]1O
3. OCCn1cc(-c2ccc3c(c2)CCC3=NO)c(-c2ccncc2)n1

1. -2.12
2. 4.43
3. -5.13
